Measured pEC50 accompanies every entry in the list below.
Tested on: aCD3/aCD28-stimulated human PBMCs
Method Notes: Cytokine production in aCD3/aCD28 stimulated human PBMCs
Assay type: cell-based
Particulars: PBMC, enhancement of IL-2 production, 18 h, read-out: Activity Class IL-2
pEC50: −log10 of the molar value. Counter-ions that a name gives are not always drawn.

Known results for compounds:
>>> print(df.to_string())
                                   compound                    target_of_assay  readout_kind  recorded_measurement
0  CC(C)C(C)NC(=O)c1ccc2c(c1)N(Cc1ccc(Cl)cc1)C(=O)[C@@H](N)CS2.Cl (stereo partly shown) [Example 63, hydrochloride]  aCD3/aCD28-stimulated human PBMCs         pEC50          5.30 to 5.80
1  CC(C)CONC(=O)c1cc2c(cc1F)SC[C@H](N)C(=O)N2Cc1ccc(Cl)cc1.Cl [Example 59, hydrochloride]  aCD3/aCD28-stimulated human PBMCs         pEC50          5.30 to 5.80
2  N#Cc1ccc(CN2C(=O)[C@@H](N)CS(=O)(=O)c3cc(F)c(C(=O)NCc4ccc(F)cc4)cc32)cc1  aCD3/aCD28-stimulated human PBMCs         pEC50                > 5.80

From here, focus on the item given below.
Reported pEC50 for CCCCNC(=O)c1cc2c(cc1N(C)C)S(=O)(=O)C[C@H](N)C(=O)N2Cc1ccc(Cl)cc1 [Example 114, hydrochloride] : what is it?
< 5.30

====

Tested on: CD4 T cells
Method Notes: CD69 expression on aCD3/aCD28 stimulated isolated human CD4 T cells (flow cytometry)
Type: cell-based
Particulars: 24 h after TCR stimulation, read-out: Activity Class CD69 (CD4)
pEC50: −log10 of the molar value. Where a name gives a salt, the structure may show the parent alone.
Readout Kind: pEC50

// below: answered molecules
Molecule	pEC50
N[C@H]1C[S@@+]([O-])c2cc(F)c(C(=O)NCCCC(F)(F)F)cc2N(Cc2ccc(Cl)cc2)C1=O (single isomer, unassigned) [Example 123, hydrochloride]	< 5.30
CCCCNC(=O)c1cc2c(cc1F)S(=O)(=O)C[C@H](N)C(=O)N2Cc1ccc(F)cc1 [Example 133, hydrochloride]	> 5.80
N#Cc1ccc(CN2C(=O)[C@@H](N)CS(=O)(=O)c3cc(F)c(C(=O)NC4CC4(F)F)cc32)cc1 (stereo partly shown) [Example 124, hydrochloride]	< 5.30
N[C@H]1CS(=O)(=O)c2cc(F)c(C(=O)NC3CC3(F)F)cc2N(Cc2ccc(F)cc2)C1=O (stereo partly shown) [Example 130, hydrochloride]	< 5.30
N[C@H]1CS(=O)(=O)c2ccc(C(=O)N[C@@H]3CC3(F)F)cc2N(Cc2ccc(OC(F)F)cc2)C1=O	> 5.80

Form field - read-out: pEC50; system: CD4 T cells; submitted item: CCCCNC(=O)c1cc2c(cc1F)SC[C@H](N)C(=O)N2Cc1ccc(F)cc1 [Example 131, hydrochloride]
< 5.30

Notebook entry, CD4 T cells assay: pEC50 of N[C@H]1CSc2cc(F)c(C(=O)NC3CC(F)(F)C3)cc2N(Cc2ccc(Cl)cc2)C1=O [Example 128, hydrochloride] = ?
< 5.30

Fill in the recorded pEC50 for this molecule, with CD4 T cells as test system: N[C@H]1CS(=O)(=O)c2ccc(C(=O)NC3CC(F)(F)C3)cc2N(Cc2ccc(Cl)cc2)C1=O
> 5.80

Record lookup: for CD4 T cells, what pEC50 belongs to N[C@H]1CS(=O)(=O)c2ccc(C(=O)NCCN3CCOCC3)cc2N(Cc2ccc(Cl)cc2)C1=O ?
< 5.30

Notebook entry, CD4 T cells assay: pEC50 of N[C@H]1CS(=O)(=O)c2cc(F)c(C(=O)NC3CCC(F)(F)CC3)cc2N(Cc2ccc(Cl)cc2)C1=O [Example 126, hydrochloride] = ?
> 5.80

Query for CD4 T cells: what pEC50 does the record show for N[C@H]1CS(=O)(=O)c2ccc(C(=O)N[C@@H]3CCC(F)(F)C3)cc2N(Cc2ccc(Cl)cc2)C1=O ?
> 5.80

Find the measured pEC50: item N[C@H]1CS(=O)(=O)c2cc(Cl)c(C(=O)N[C@@H]3CC3(F)F)cc2N(Cc2ccc(Cl)cc2)C1=O , target or system CD4 T cells.
> 5.80

GET /values?readout=pEC50&system=CD4 T cells&item= N[C@H]1CS(=O)(=O)c2cc(F)c(C(=O)NCCCC(F)(F)F)cc2N(Cc2ccc(F)cc2)C1=O [Example 129, hydrochloride]
> 5.80

====

Tested on: aCD3/aCD28-stimulated human PBMCs
Method Notes: Cytokine production in aCD3/aCD28 stimulated human PBMCs
Type: cell-based
Particulars: PBMC, enhancement of IL-2 production, 18 h, read-out: Activity Class IL-2
Readout Kind: EC50

Some entries whose results are on file:
>>> df
                                   compound  recorded_measurement
0  CCCCNC(=O)c1cc2c(cc1F)S(=O)(=O)C[C@H](N)C(=O)N2Cc1ccc(Cl)cc1.Cl [Example 69, hydrochloride]             < 1.58 µM
1  CCCCNC(=O)c1cc2c(cc1F)SC[C@H](N)C(=O)N2Cc1ccc(Cl)c(F)c1       1.58 to 5.01 µM
2  C#CCCNC(=O)c1cc2c(cc1F)S(=O)(=O)C[C@H](N)C(=O)N2Cc1ccc(Cl)cc1             > 5.01 µM

Recorded EC50 for C#CCCCNC(=O)c1cc2c(cc1F)S(=O)(=O)C[C@H](N)C(=O)N2Cc1ccc(Cl)cc1 , please?
1.58 to 5.01 µM

# query: EC50 of entry CC(C)(C)C(=O)NCCCNC(=O)c1ccc2c(c1)N(Cc1ccc(OC(F)(F)F)cc1)C(=O)[C@@H](N)CS2.Cl [Example 12, hydrochloride]
> 5.01 µM

Query (compound): N[C@H]1CS(=O)(=O)c2ccc(C(=O)NCCCC(F)(F)F)cc2N(Cc2ccccc2)C1=O ; field requested: EC50
> 5.01 µM

Consider the compound shown here: CC1(NC(=O)c2cc3c(cc2F)S(=O)(=O)C[C@H](N)C(=O)N3Cc2ccc(Cl)cc2)CC1.Cl [Example 99, hydrochloride] What is its recorded EC50?
1.58 to 5.01 µM

Which EC50 is reported for this compound? CCCCNC(=O)c1cc2c(cc1F)SC[C@H](N)C(=O)N2Cc1ccc(Cl)cc1.Cl [Example 41, hydrochloride]
1.58 to 5.01 µM

====

Tested on: aCD3/aCD28-stimulated human PBMCs
Method Notes: Cytokine production in aCD3/aCD28 stimulated human PBMCs
Assay type: cell-based
Particulars: PBMC, enhancement of IL-2 production, 18 h, read-out: Activity Class IL-2
pEC50: −log10 of the molar value.
Measured pEC50 by item

Below, 5 molecules whose answers are already recorded.
>>> df
                                   molecule  recorded_measurement
0  Cl.N[C@H]1CS(=O)(=O)c2cc(F)c(C(=O)NCC3CCOCC3)cc2N(Cc2ccc(Cl)cc2)C1=O [Example 71, hydrochloride]                > 5.80
1  N[C@H]1CS(=O)(=O)c2ccc(C(=O)NC3CC3(F)F)cc2N(Cc2ccc(Br)cc2)C1=O (stereo partly drawn) [Example 180]                > 5.80
2  CCCONC(=O)c1cc2c(cc1F)SC[C@H](N)C(=O)N2Cc1ccc(Cl)cc1.Cl [Example 58, hydrochloride]                < 5.30
3  Cl.N[C@H]1CSc2cc(F)c(C(=O)NCC3CCOCC3)cc2N(Cc2ccc(Cl)c(F)c2)C1=O [Example 56, hydrochloride]          5.30 to 5.80
4  C[C@H]1Sc2ccc(C(=O)NCCCC(F)(F)F)cc2N(Cc2ccc(Cl)cc2)C(=O)[C@H]1N.Cl [Example 51, hydrochloride]          5.30 to 5.80

Given the molecule Cl.N[C@H]1CSc2ccc(C(=O)NCc3ccc(F)cc3)cc2N(Cc2ccc(C(F)(F)F)nc2)C1=O [Example 37, hydrochloride] , what is its reported pEC50?
5.30 to 5.80

Name the reported pEC50 value associated with the molecule Cl.N[C@H]1CSc2ccc(C(=O)NC3CCC(F)(F)CC3)cc2N(Cc2ccc(Cl)cc2)C1=O [Example 33, hydrochloride]
5.30 to 5.80

====

System: aCD3/aCD28-stimulated human PBMCs
Method Notes: Cytokine production in aCD3/aCD28 stimulated human PBMCs
Format: cell-based
Particulars: PBMC, enhancement of IL-2 production, 18 h, read-out: Activity Class IL-2
pEC50: −log10 of the molar value. Where a name gives a salt, the structure may show the parent alone.
Reported pEC50 values are given for each entry in this list.

                                   compound  readout_kind  recorded_measurement
0  CC(C)NC(=O)c1ccc2c(c1)N(Cc1ccc(C(C)(C)C)cc1)C(=O)[C@@H](N)CS2.Cl [Example 4, hydrochloride]         pEC50          5.30 to 5.80
1  N[C@H]1CS(=O)(=O)c2cc(Cl)c(C(=O)N[C@@H]3CC3(F)F)cc2N(Cc2ccc(Cl)cc2)C1=O         pEC50                < 5.30
2  CCCCNC(=O)c1ccc2c(c1)N(Cc1ccc(C(C)(C)C)cc1)C(=O)[C@@H](N)CS2.Cl [Example 2, hydrochloride]         pEC50          5.30 to 5.80

Please look up its pEC50: CCCCNC(=O)c1cc2c(cc1F)SC[C@H](N)C(=O)N2Cc1ccc(F)cc1 [Example 131, hydrochloride]
< 5.30

Data request, read-out pEC50, for Cl.N[C@H]1CSc2ccc(C(=O)NCc3ccc(F)cc3)cc2N(Cc2ccc(Cl)cc2)C1=O [Example 26, hydrochloride]
5.30 to 5.80
